# IC50 measurements, system: zebrafish HDAC10 (Danio rerio)
# Sequence (F1QCV2 whole entry): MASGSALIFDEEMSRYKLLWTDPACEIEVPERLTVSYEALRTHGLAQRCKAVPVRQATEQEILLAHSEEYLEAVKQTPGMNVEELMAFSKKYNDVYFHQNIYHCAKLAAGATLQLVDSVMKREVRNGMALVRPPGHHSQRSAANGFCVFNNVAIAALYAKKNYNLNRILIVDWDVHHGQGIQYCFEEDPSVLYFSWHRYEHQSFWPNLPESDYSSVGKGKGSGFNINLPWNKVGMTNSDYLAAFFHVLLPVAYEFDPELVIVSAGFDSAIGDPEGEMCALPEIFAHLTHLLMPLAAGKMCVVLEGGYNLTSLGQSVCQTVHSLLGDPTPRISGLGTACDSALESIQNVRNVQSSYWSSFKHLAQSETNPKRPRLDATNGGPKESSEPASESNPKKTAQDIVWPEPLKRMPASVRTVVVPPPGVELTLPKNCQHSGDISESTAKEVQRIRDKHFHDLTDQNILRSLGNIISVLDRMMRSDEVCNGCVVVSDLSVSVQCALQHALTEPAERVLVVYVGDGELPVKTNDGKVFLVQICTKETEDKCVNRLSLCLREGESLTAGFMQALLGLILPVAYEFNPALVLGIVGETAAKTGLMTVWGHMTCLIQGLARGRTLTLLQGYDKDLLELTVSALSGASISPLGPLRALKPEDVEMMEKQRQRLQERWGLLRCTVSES
quantity: IC50 (nM)

See these solved cases before continuing.
Measured IC50 (zebrafish HDAC10 (Danio rerio)), entry NCCCNCCCCCB(O)O [compound 4] : 400000

Measured IC50 (zebrafish HDAC10 (Danio rerio)), entry CC(=O)CCCCCNCCCN [compound 2, 7-[(3-aminopropyl)amino]heptan-2-one] : 2300

Measured IC50 (zebrafish HDAC10 (Danio rerio)), entry COCC(=O)CCCCCNCCCN [compound 3] : 35000

P = NCCCNCCCCCC(=O)C(F)(F)F [compound 1]
Q = CC(=O)SCCCCCNCCCN [compound 7]
R = NCCCNCCCCCS [compound 6, 5-[(3-aminopropyl)amino]pentane-1-thiol]
Please order the records by their reported IC50, lowest number first. Please, when replying, give the labels in the order that was requested.
Q, P, R
(Q: 30 nM, P: 80 nM, R: 370 nM)
